assay: Oral bioavailability in dog; format: ADME, organism-based, Canis lupus familiaris; conditions: in vivo
metric_name: bioavailability (%)
Expressed in %, but write only the number.

Value of measured bioavailability for the entry C[C@@H](O[C@@H]1CN(C2=CC(=O)CC2)C[C@H]1c1ccc(F)cc1)c1cc(C(F)(F)F)cc(C(F)(F)F)c1 : 100

---

system: Gerbillinae; assay: Inhibition of GR-73632-induced foot tapping in gerbils at 3 mg/kg, iv after 24 hrs; assay type: functional; details: Gerbillinae, iv, 24 h
I'd be grateful if you could share measured inhibition in vivo at 3 mg/kg for these entries.
Expressed in %, but write only the number.

Value of measured inhibition in vivo at 3 mg/kg for the entry C[C@@H](O[C@@H]1CN(C2=CC(=O)CC2)C[C@H]1c1ccccc1)c1cc(C(F)(F)F)cc(C(F)(F)F)c1 : 100

Value of measured inhibition in vivo at 3 mg/kg for the entry CC1CC(=O)C=C1N1C[C@@H](O[C@H](C)c2cc(C(F)(F)F)cc(C(F)(F)F)c2)[C@H](c2ccc(F)cc2)C1 (mixture of isomers) : 79

Value of measured inhibition in vivo at 3 mg/kg for the entry C[C@@H](O[C@@H]1CN(C2=CC(=O)C(C)(C)CC2)C[C@H]1c1ccccc1)c1cc(C(F)(F)F)cc(C(F)(F)F)c1 : 12

Value of measured inhibition in vivo at 3 mg/kg for the entry C[C@@H](O[C@@H]1CN(C(=O)[C@@H]2COC(=O)N2)C[C@H]1c1ccc(F)cc1)c1cc(C(F)(F)F)cc(C(F)(F)F)c1 : 13
